Ref: patent US6277872A

Reported Na+-channel Inh. [%] ([3H]-BTX) is given for each of the following molecules.
System: "Na+ channel site 2"-binding site
assay remarks: Binding to the Na+ channel site 2 binding site ([3H]-BTX)
assay context: test concentration typically 10 μM
Report only the number, with the unit % understood.

Here's what some known entries look like.
# compound structure, tgt, reported
measured = [
    ("CN(C)CCOc1ccccc1-c1nc(-c2ccco2)no1", "\"Na+ channel site 2\"-binding site", 54),
    ("CN(C)CCOc1ccccc1-c1nc(-c2ccc(Cl)cc2)no1", "\"Na+ channel site 2\"-binding site", 85),
    ("CN1CCN(c2ccccc2-c2nc(-c3ccccc3)no2)CC1", "\"Na+ channel site 2\"-binding site", 88),
    ("CN(C)CCOc1ccccc1-c1nc(-c2cccs2)no1", "\"Na+ channel site 2\"-binding site", 89),
]

Entry under review: NCCOc1ccccc1-c1nc(-c2ccccc2)no1 . Reported Na+-channel Inh. [%] ([3H]-BTX)?
89

Entry under review: CN(C)CCOc1ccccc1-c1nc(-c2ccc(O)cc2)no1 . Reported Na+-channel Inh. [%] ([3H]-BTX)?
87

Entry under review: CN(C)CCOc1ccccc1-c1nc(-c2cccc(Br)c2)no1 . Reported Na+-channel Inh. [%] ([3H]-BTX)?
85

Entry under review: CN(C)CCOc1ccccc1-c1nc(-c2ccccn2)no1 . Reported Na+-channel Inh. [%] ([3H]-BTX)?
72

Entry under review: c1ccc(-c2noc(-c3ccccc3OCCN3CCCCC3)n2)cc1 . Reported Na+-channel Inh. [%] ([3H]-BTX)?
100

Entry under review: CN(C)CCOc1ccccc1-c1nc(-c2ccccc2F)no1 . Reported Na+-channel Inh. [%] ([3H]-BTX)?
88

---

Tested on: "Na+ channel site 2"-binding site
assay remarks: Binding to the Na+ channel site 2 binding site ([3H]-BTX)
assay context: test concentration typically 10 μM
Label Condition met when Na+-channel Inh. [%] ([3H]-BTX) < 90%; otherwise Condition not met.

Hi there! Is Na+-channel Inh. [%] ([3H]-BTX) for CN(C)CCOc1ccccc1-c1nc(-c2ccc(F)cc2)no1 below 90%, do you know?
Condition met

---

Test system: "Na+ channel site 2"-binding site
assay remarks: Binding to the Na+ channel site 2 binding site ([3H]-BTX)
assay context: test concentration typically 10 μM
Reported Na+-channel Inh. [%] ([3H]-BTX) is given for each of the following compounds.
Report only the number, with the unit % understood.

Here's what some known entries look like.
# compound structure, tgt, measurement type, unit tag, reported
data = [
    ("Cc1ccc(-c2noc(-c3ccccc3OCCN(C)C)n2)cc1", "\"Na+ channel site 2\"-binding site", "Na+-channel Inh. [%] ([3H]-BTX)", "%", 80),
    ("Cc1ccccc1-c1noc(-c2ccccc2OCCN(C)C)n1", "\"Na+ channel site 2\"-binding site", "Na+-channel Inh. [%] ([3H]-BTX)", "%", 84),
    ("c1ccc(-c2noc(-c3ccccc3OCCN3CCCC3)n2)cc1", "\"Na+ channel site 2\"-binding site", "Na+-channel Inh. [%] ([3H]-BTX)", "%", 95),
    ("CN(C)CCOc1ccccc1-c1nc(-c2cccc(C(F)(F)F)c2)no1", "\"Na+ channel site 2\"-binding site", "Na+-channel Inh. [%] ([3H]-BTX)", "%", 89),
]

Entry under review: Cc1ccc(-c2nc(-c3ccccc3)no2)c(OCCN(C)C)c1 . Reported Na+-channel Inh. [%] ([3H]-BTX)?
92

---

tgt: Histamine H1 receptor (Cavia porcellus, UniProt P31389)
Construct: from tissue
Sequence (P31389 whole entry): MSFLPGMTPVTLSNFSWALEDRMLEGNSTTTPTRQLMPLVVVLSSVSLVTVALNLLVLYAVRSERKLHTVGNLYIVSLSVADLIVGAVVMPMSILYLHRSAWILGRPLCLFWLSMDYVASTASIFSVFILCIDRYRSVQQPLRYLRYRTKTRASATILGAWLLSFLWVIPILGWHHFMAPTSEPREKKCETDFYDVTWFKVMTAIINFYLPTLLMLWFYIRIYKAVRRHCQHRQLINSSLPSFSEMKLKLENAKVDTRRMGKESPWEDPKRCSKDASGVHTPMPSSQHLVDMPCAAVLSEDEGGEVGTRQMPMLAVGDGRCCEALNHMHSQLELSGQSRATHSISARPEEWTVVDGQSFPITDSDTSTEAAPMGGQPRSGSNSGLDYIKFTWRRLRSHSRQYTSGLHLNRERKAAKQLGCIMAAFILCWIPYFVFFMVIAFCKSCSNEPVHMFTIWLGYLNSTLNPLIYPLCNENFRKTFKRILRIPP
assay remarks: Histamine H1 receptor binding study
assay context: test concentration typically 10 μM; read-out: H1 Inh. [%]
Excerpt: Table 5 summarises the inhibitory values on the above receptors:
Binary call on inhibition at 10 µM: 1 from 90% upward, -1 beneath that.

# compound structure, classification
rows = [
    ("CN(C)CCOc1ccccc1-c1nc(-c2ccccn2)no1", -1),
]

Could you now look at the following compound, please?
Quick check, inhibition at 10 µM >= 90%? CN(C)CCOc1ccccc1-c1nc(-c2cccc(C(F)(F)F)c2)no1
-1

---

tgt: Histamine H1 receptor (Cavia porcellus, UniProt P31389)
Construct: from tissue
assay remarks: Histamine H1 receptor binding study
assay context: test concentration typically 10 μM; read-out: H1 Inh. [%]
measurement type: inhibition at 10 µM (%)
Report only the number, with the unit % understood.

Here's what some known entries look like.
# compound structure, unit tag, inhibition at 10 µM
data = [
    ("CN1CCN(CCOc2ccccc2-c2nc(-c3ccccc3)no2)CC1", "%", 74),
    ("CN(C)CCOc1ccccc1-c1nc(-c2ccc(N)cc2)no1", "%", 82),
    ("CN(C)CCOc1ccccc1-c1nc(-c2cccs2)no1", "%", 94),
]

Entry under review: CC(C)NCCOc1ccccc1-c1nc(-c2ccccc2)no1 . Reported inhibition at 10 µM?
75

Entry under review: c1ccc(-c2noc(-c3ccccc3OCCN3CCCC3)n2)cc1 . Reported inhibition at 10 µM?
91

Entry under review: CN(C)CCOc1ccccc1-c1nc(Cc2ccccc2)no1 . Reported inhibition at 10 µM?
94

---

System: Sigma receptor
assay remarks: Sigma receptor binding study
assay context: test concentration typically 10 μM
Label MET when Sigma Inh. [%] < 70%; otherwise NOT MET.

# molecule, classification
data = [
    ("c1ccc(-c2noc(-c3ccccc3OCCN3CCCCC3)n2)cc1 [Example 14]", "NOT MET"),
    ("CN(C)CCOc1ccccc1-c1nc(-c2cccs2)no1 [Example 42]", "MET"),
    ("CN(C)CCOc1ccccc1-c1nc(Cc2ccccc2)no1 [Example 31]", "NOT MET"),
]

Could you now look at the following molecule, please?
Hi there! Is Sigma Inh. [%] for Cc1cccc(-c2noc(-c3ccccc3OCCN(C)C)n2)c1 [Example 37] below 70%, do you know?
NOT MET

---

tgt: Histamine H1 receptor (Cavia porcellus)
Construct: from tissue
assay remarks: Histamine H1 receptor binding study
assay context: test concentration typically 10 μM; read-out: H1 Inh. [%]
measurement type: inhibition at 10 µM (%)
Report only the number, with the unit % understood.

Here's what some known entries look like.
# compound structure, inhibition at 10 µM (%)
measured = [
    ("c1ccc(-c2noc(-c3ccccc3OCCN3CCCCC3)n2)cc1", 87),
    ("CCN(CC)CCOc1ccccc1-c1nc(-c2ccccc2)no1", 87),
    ("Cc1cccc(-c2noc(-c3ccccc3OCCN(C)C)n2)c1", 93),
]

# value lookup — system Histamine H1 receptor (Cavia porcellus), readout inhibition at 10 µM, item CN(C)CCOc1ccccc1-c1nc(-c2ccsc2)no1
95

# value lookup — system Histamine H1 receptor (Cavia porcellus), readout inhibition at 10 µM, item CN(C)CCOc1ccccc1-c1nc(-c2cccc(Br)c2)no1
78

---

Test system: "Na+ channel site 2"-binding site
assay remarks: Binding to the Na+ channel site 2 binding site ([3H]-BTX)
assay context: test concentration typically 10 μM
Using Na+-channel Inh. [%] ([3H]-BTX) as the sorting value, the categories are range A: < 80%; range B: ≥ 80% and < 90%; range C: ≥ 90%

Solved cases below.
# compound structure, classification
data = [
    ("COc1ccc(-c2noc(-c3ccccc3OCCN(C)C)n2)cc1", "range B"),
    ("Cc1cccc(-c2nc(-c3ccccc3)no2)c1OCCN(C)C", "range C"),
    ("CN(C)CCOc1ccccc1-c1nc(-c2ccccc2)no1", "range B"),
    ("CCNCCOc1ccccc1-c1nc(-c2ccccc2)no1", "range C"),
    ("CC(C)NCCOc1ccccc1-c1nc(-c2ccccc2)no1", "range C"),
]

For the record CN(C)CCOc1ccccc1-c1nc(-c2ccsc2)no1 , report the class its Na+-channel Inh. [%] ([3H]-BTX) corresponds to.
range A

For the record CN(C)CCOc1ccccc1-c1nc(-c2ccccc2Br)no1 , report the class its Na+-channel Inh. [%] ([3H]-BTX) corresponds to.
range C

For the record CN(C)CCOc1ccccc1-c1nc(-c2cccc(Cl)c2)no1 , report the class its Na+-channel Inh. [%] ([3H]-BTX) corresponds to.
range A

For the record CNCCOc1ccccc1-c1nc(-c2ccccc2)no1 , report the class its Na+-channel Inh. [%] ([3H]-BTX) corresponds to.
range C

For the record c1ccc(CNCCOc2ccccc2-c2nc(-c3ccccc3)no2)cc1 , report the class its Na+-channel Inh. [%] ([3H]-BTX) corresponds to.
range C

For the record CN(C)CCOc1ccccc1-c1nc(-c2ccc(N)cc2)no1 , report the class its Na+-channel Inh. [%] ([3H]-BTX) corresponds to.
range A

For the record Cc1cccc(-c2noc(-c3ccccc3OCCN(C)C)n2)c1 , report the class its Na+-channel Inh. [%] ([3H]-BTX) corresponds to.
range C
